Assay: Antiproliferative activity against human fetal neural precursor cells by MTT assay
Assay type: functional
Entries annotated with measured EC50
Lab book: enter the figure in nM, no units written.

Please give the measured EC50 for this molecule: Nc1ccc(CCN2CCN(c3cccc(C(F)(F)F)c3)CC2)cc1
220

Quick one: CC(C(O)c1ccc(O)cc1)N1CCC(Cc2ccccc2)CC1 (stereo not drawn)
420

Okay, and O[Si](CCCN1CCCCC1)(c1ccc(F)cc1)C1CCCCC1 (stereo not drawn) ?
10600

* * *

Organism: Mus musculus
Assay: Inhibition of neurosphere formation of mouse neural precursor cells pretreated for 7 days at antiproliferative EC75 level upon reculture in absence of compound by MTT assay
Assay type: functional
Activity calls are given as the source filed them. The calls are words filed in the database; no cut-off is given here.
Your reply should match one of these outcome classes. label 1 for active, label 0 for inactive

O[Si](CCCN1CCCCC1)(c1ccc(F)cc1)C1CCCCC1 (stereo unspecified) = label 1
CC(C(O)c1ccc(O)cc1)N1CCC(Cc2ccccc2)CC1 (stereo unspecified) = label 1
CCN(CC)CCOCCOC(=O)C1(c2ccccc2)CCCC1 = label 1
Nc1ccc(CCN2CCN(c3cccc(C(F)(F)F)c3)CC2)cc1 = label 1
CN1CCc2cccc3c2[C@H]1Cc1ccc(O)c(O)c1-3 = label 1

Attention now turns to another entry.
Look up the recorded call for COc1cc(CNC(=O)CCCCCCC(C)C)ccc1O [DIHYDROCAPSAICIN] in this test.
label 0
